Values were extracted from paper PMC11792831.

# studyTarget: LRRK2 (Homo sapiens, UniProt Q5S007)
# Construct: purchased Eurofins (Belgium), contract assay service
# Sequence (Q5S007 whole entry): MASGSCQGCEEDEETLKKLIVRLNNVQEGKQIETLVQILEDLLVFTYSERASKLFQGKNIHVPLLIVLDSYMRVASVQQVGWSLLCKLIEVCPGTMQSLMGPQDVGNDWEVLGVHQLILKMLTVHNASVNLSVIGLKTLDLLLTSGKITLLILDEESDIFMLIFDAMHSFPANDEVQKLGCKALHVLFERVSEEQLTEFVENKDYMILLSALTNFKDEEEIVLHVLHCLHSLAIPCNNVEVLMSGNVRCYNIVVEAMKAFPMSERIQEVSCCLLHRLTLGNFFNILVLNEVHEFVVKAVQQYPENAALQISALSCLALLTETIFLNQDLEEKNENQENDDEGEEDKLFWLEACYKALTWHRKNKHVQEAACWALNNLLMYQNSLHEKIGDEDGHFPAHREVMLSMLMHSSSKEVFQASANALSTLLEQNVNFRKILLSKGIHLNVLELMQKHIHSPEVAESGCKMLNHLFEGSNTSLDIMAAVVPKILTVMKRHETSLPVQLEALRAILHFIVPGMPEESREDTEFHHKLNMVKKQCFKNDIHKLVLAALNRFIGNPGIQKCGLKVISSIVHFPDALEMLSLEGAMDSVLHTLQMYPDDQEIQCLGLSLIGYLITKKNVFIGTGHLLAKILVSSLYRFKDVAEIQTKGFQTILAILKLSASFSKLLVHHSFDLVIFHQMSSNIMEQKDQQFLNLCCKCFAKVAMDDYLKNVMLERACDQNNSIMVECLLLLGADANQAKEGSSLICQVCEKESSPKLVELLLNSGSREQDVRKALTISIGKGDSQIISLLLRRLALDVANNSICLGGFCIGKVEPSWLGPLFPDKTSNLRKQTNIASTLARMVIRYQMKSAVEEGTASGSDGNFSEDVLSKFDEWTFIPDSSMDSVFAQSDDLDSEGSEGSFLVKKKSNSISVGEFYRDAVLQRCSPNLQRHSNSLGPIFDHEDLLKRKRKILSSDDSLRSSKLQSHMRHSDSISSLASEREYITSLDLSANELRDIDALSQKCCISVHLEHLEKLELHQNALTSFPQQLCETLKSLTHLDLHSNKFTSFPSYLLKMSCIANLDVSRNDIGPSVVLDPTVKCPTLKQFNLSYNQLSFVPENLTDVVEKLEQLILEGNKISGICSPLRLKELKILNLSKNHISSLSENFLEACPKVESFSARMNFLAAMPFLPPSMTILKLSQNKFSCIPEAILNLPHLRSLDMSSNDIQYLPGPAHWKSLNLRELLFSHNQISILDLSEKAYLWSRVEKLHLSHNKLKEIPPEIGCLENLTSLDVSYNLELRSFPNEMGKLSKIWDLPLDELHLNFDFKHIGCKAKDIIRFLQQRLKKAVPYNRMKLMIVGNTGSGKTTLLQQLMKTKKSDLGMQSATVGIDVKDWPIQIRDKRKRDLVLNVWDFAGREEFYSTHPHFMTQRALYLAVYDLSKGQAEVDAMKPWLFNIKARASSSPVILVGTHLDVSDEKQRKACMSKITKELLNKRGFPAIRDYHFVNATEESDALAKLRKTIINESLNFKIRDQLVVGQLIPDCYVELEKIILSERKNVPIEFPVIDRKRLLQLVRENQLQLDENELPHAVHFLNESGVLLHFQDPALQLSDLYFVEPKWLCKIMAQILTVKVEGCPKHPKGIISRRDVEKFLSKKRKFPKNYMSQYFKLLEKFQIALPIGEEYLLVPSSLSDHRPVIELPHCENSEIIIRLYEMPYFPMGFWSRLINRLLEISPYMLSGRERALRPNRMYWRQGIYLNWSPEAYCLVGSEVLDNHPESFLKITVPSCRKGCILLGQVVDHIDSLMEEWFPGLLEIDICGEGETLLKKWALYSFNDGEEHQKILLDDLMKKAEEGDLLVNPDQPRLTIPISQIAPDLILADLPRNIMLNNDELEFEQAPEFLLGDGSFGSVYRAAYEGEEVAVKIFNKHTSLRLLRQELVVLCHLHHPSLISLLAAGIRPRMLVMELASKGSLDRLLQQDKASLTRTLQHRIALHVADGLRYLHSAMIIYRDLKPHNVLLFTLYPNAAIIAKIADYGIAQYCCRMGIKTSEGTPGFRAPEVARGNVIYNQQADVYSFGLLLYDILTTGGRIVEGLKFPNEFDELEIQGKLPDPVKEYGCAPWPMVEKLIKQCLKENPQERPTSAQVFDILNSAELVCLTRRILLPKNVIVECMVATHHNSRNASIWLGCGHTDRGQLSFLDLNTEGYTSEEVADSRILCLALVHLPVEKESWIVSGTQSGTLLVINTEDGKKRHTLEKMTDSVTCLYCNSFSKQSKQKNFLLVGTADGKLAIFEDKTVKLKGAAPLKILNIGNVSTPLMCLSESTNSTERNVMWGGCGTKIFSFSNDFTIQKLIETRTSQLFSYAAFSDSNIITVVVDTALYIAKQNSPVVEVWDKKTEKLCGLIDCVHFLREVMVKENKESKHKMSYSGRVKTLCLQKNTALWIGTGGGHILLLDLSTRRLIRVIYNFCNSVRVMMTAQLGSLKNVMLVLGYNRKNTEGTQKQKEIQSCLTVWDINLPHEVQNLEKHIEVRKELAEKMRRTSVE
# testDescription: In vitro LRRK2 kinase activity assay (Eurofins)
# Assay type: biochemical
# conditionsUsed: remaining kinase activity at 1 uM compound; 100% = no inhibition, 0% = complete inhibition
Response field label: string, one of 1 (yes) (activity at 1 µM strictly below 50%) or 0 (no).

Inquiry: Does the reported activity at 1 µM of the following compound sit strictly below 50%? CCOc1cc(N2CC[S+]([O-])CC2)ccc1Nc1ncc2c(n1)N(C)c1ccccc1C(=O)N2C [Compound D5]
Reply text: 1 (yes)

Inquiry: Strictly below 50%: is that where activity at 1 µM of COc1cc(N2CCC(F)CC2)ccc1Nc1ncc2c(n1)N(C)c1ccccc1C(=O)N2C [Compound D13] sits?
Reply text: 0 (no)

Inquiry: Identify whether the compound COc1cc(N2CCC(C)(C)CC2)ccc1Nc1ncc2c(n1)N(C)c1ccccc1C(=O)N2C [Compound D16] records activity at 1 µM below 50%.
Reply text: 1 (yes)

Inquiry: Strictly below 50%: is that where activity at 1 µM of COc1cc(N2CCCCC2)ccc1Nc1ncc2c(n1)N(C)c1ccccc1C(=O)N2C [Compound D11] sits?
Reply text: 1 (yes)

Inquiry: Dear colleague, could you confirm whether activity at 1 µM of COc1cc(NC(=O)CC(=O)O)ccc1Nc1ncc2c(n1)N(C)c1ccccc1C(=O)N2C [Compound D1] falls below 50%? Thanks.
Reply text: 0 (no)

Inquiry: Please indicate whether the reported activity at 1 µM of CCOc1cc(N2CCC(O)CC2)ccc1Nc1ncc2c(n1)N(C)c1ccc(C(F)(F)F)cc1C(=O)N2C [Compound A7] is strictly below 50%.
Reply text: 0 (no)

Inquiry: For this compound, is activity at 1 µM lower than 50%? COc1cc(N2CCC(C)(O)CC2)ccc1Nc1ncc2c(n1)N(C)c1ccccc1C(=O)N2C [Compound D15]
Reply text: 1 (yes)

Inquiry: Hi there! Is activity at 1 µM for CCOc1cc(N2CCN(C[C@@]3(O)OC[C@@H](O)[C@@H](O)[C@@H]3O)CC2)ccc1Nc1ncc2c(n1)N(C)c1ccccc1C(=O)N2C [Compound D7] below 50%, do you know?
Reply text: 1 (yes)

---

Overview of recorded Selectivity (DCLK1 activity/LRRK2 activity) for various molecules
# studyTarget: DCLK1 (Homo sapiens, UniProt O15075)
# Construct: purchased Eurofins (Belgium), contract assay service
# Sequence (O15075 whole entry): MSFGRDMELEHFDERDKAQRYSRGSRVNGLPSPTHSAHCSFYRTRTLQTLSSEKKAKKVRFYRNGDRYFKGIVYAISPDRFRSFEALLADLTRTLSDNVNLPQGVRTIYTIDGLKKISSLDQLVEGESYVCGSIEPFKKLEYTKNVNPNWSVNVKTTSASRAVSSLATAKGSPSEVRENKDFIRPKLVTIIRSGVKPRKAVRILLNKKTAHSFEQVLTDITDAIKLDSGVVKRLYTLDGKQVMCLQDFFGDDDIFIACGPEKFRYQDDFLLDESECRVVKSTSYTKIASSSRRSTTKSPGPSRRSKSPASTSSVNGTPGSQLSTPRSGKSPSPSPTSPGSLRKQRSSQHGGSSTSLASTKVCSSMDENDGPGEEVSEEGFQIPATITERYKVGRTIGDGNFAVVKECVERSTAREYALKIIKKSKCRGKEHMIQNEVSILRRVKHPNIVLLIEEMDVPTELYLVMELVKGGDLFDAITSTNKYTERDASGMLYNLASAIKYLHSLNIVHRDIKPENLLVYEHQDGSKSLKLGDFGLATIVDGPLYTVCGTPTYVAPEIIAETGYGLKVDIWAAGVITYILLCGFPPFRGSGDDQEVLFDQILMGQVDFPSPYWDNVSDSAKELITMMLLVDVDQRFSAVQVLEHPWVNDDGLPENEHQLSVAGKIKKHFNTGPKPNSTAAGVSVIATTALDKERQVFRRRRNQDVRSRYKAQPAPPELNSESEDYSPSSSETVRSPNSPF
# testDescription: In vitro DCLK1 kinase activity assay (Eurofins)
# Format: biochemical
# conditionsUsed: ratio of remaining activities at 1 uM
Could you keep your reply to the number by itself?

- smilesRepr: "COc1cc(N2CCC(F)(F)CC2)ccc1Nc1ncc2c(n1)N(C)c1ccccc1C(=O)N2C"
  assayResult: 0.44
- smilesRepr: "COc1cc(NC(=O)CCCCCSC(C)=O)ccc1Nc1ncc2c(n1)N(C)c1ccccc1C(=O)N2C"
  assayResult: 0.36

Inquiry: Entry CCOc1cc(N2CCC(O)CC2)ccc1Nc1ncc2c(n1)N(C)c1cc(Cl)ccc1C(=O)N2C has what Selectivity (DCLK1 activity/LRRK2 activity)?
Reply text: 0.97

---

A collection of compounds and their measured IC50
# studyTarget: DCLK1 (Homo sapiens)
# Construct: purchased Eurofins (Belgium), contract assay service
# testDescription: In vitro DCLK1 kinase activity assay (Eurofins)
# Assay type: biochemical
# conditionsUsed: read-out: IC50 of DCLK1
Field format: number, assumed nM, no unit text.

Consider the reported IC50 for these compounds:
- compound: "CCOc1cc(N2CCS(=O)(=O)CC2)ccc1Nc1ncc2c(n1)N(C)c1ccccc1C(=O)N2C [Compound D6]"
  studyTarget: "DCLK1 (Homo sapiens)"
  unitDescriptor: "nM"
  IC50: 74
- compound: "COc1cc(NC(=O)CCC(=O)O)ccc1Nc1ncc2c(n1)N(C)c1ccccc1C(=O)N2C [Compound D2]"
  studyTarget: "DCLK1 (Homo sapiens)"
  unitDescriptor: "nM"
  IC50: 70

Inquiry: I'm curious: which IC50 was measured for CCOc1cc(N2CC[S+]([O-])CC2)ccc1Nc1ncc2c(n1)N(C)c1ccccc1C(=O)N2C [Compound D5] tested on DCLK1 (Homo sapiens)?
Reply text: 146

Inquiry: Which IC50 is reported with DCLK1 (Homo sapiens) for this entry: COc1cc(N2CCCCC2)ccc1Nc1ncc2c(n1)N(C)c1ccccc1C(=O)N2C [Compound D11] ?
Reply text: 100

---

# studyTarget: LRRK2 (Homo sapiens)
# Construct: purchased Eurofins (Belgium), contract assay service
# testDescription: In vitro LRRK2 kinase activity assay (Eurofins)
# Type: biochemical
# conditionsUsed: remaining kinase activity at 1 uM compound; 100% = no inhibition, 0% = complete inhibition
# if measured activity at 1 µM < 50%: label 1  # else: label 0

A selection of reference data follows.
- compound: "CCOc1cc(N2CCC(C(=O)O)CC2)ccc1Nc1ncc2c(n1)N(C)c1ccccc1C(=O)N2C [Compound D3]"
  classLabel: "label 1"
- compound: "CN1C(=O)c2ccccc2N(C)c2nc(Nc3ccc(N4CCC(O)CC4)nc3)ncc21 [Compound C2]"
  classLabel: "label 1"
- compound: "CCOc1cc(N2CCC(O)CC2)ccc1Nc1ncc2c(n1)N(C)c1c(Cl)cccc1C(=O)N2C [Compound A1]"
  classLabel: "label 1"

Inquiry: Report whether reported activity at 1 µM is lower than 50% (strictly) for CCOc1cc(N2CCC(O)CC2)ccc1Nc1ncc2c(n1)N(C)c1ccc(Cl)cc1C(=O)N2C [Compound A5]
Reply text: label 0

---

# studyTarget: LRRK2 (Homo sapiens, UniProt Q5S007)
# Construct: purchased Eurofins (Belgium), contract assay service
# testDescription: In vitro LRRK2 kinase activity assay (Eurofins)
# Assay type: biochemical
# conditionsUsed: remaining kinase activity at 1 uM compound; 100% = no inhibition, 0% = complete inhibition
Listing: activity at 1 µM of selected compounds
Provide only the numeric value, understood in %.

- compound: "CCOc1cc(N2CCC(O)CC2)ccc1Nc1ncc2c(n1)N(C)c1cccc(F)c1C(=O)N2C"
  studyTarget: "LRRK2 (Homo sapiens, UniProt Q5S007)"
  activity at 1 µM / %: 50
- compound: "COc1cc(NC(=O)CCC(=O)O)ccc1Nc1ncc2c(n1)N(C)c1ccccc1C(=O)N2C [Compound D2]"
  studyTarget: "LRRK2 (Homo sapiens, UniProt Q5S007)"
  activity at 1 µM / %: 49

Attention now turns to another entry.
Inquiry: Entry CCOc1cc(N2CCC(O)CC2)ccc1Nc1ncc2c(n1)N(C)c1ccc(F)cc1C(=O)N2C : reported activity at 1 µM = ?
Reply text: 51
